B1: CPEB3 Ribozyme (parent)
chain: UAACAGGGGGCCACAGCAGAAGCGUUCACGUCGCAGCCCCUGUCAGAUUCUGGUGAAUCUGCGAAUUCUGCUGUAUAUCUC

variants of: B1; assay: self-cleavage, relative activity (ratio to wild type); higher = more cleavage; in vitro, sequencing
MEASURE: self-cleavage

>>> print(df.to_string())
                         biopolymer_sequence        measure  data_value
 0  UAACAGGGGGCCACAGCAGAAGCGUUCACGUCGCAGCCCCUGUCAGAUUCUGGUGAAUCUGCGAAUUCUGCUGUGUACCUC  self-cleavage        0.67
 1  UAACAAGGGGCCACAGCAGAAGCGUUCACGUCGCAGCCCCUGUCAGAUUCUGGUGAAUCUGUGAAUUCUGCUGUAUAUCUC  self-cleavage        0.25
 2  UAACAGGGGGCCACAGCAGAAGCGUUCACGUCACAGCCCCUGUCAGAUUCUGGUGAAUCUGCGAACUCUGCUGUAUAUCUC  self-cleavage        0.31
 3  UAACAGGGGGCCACAGCAGAAGCGUUCACGUCGCAGCCCCUGUCAGACUCUGGUGAAUCUGCGAAUUCUGCUGUAUAUCAC  self-cleavage        0.68
 4  UAACAGGGGGCCACAGCAGAAGCCUUCACGUCGCAGCCCCUGUCAGAUUCUGGUGAAUCUGCGAAUUCAGCUGUAUAUCUC  self-cleavage           0
 5  UAACAGGGGGCCACAGCAGAGGCGUUCACGUCGCAGCCCCUGUCAGAUUCUGGUGAAUCUGCGACUUCUGCUGUAUAUCUC  self-cleavage        0.12
 6  UAACAGGGGGCCACAGCAGAAGCGUUCACCUCGCAGCCCCUGUCAGAUUCUGGUGAAUCCGCGAAUUCUGCUGUAUAUCUC  self-cleavage        0.12
 7  UAACAGGGGGCCACAGCAGAAGCGCUCUCGUCGCAGCCCCUGUCAGAUUCUGGUGAAUCUGCGAAUUCUGCUGUAUAUCUC  self-cleavage        0.25
 8  UAACAAGGGGCCACAGCAGAAGCGUUCACGUCGCAGCCCCUGUCAGAUUCUGGUGAAUCUGCGAAUCCUGCUGUAUAUCUC  self-cleavage        0.32
 9  UAACAGGUGGCCACAGCAGAAGCGUUCACGUCGCAGCCCCUGUCAGAUUCAGGUGAAUCUGCGAAUUCUGCUGUAUAUCUC  self-cleavage        0.08
10  UAACAGGGGGCCACAGCAGAAGCGUUCUCGUCGCCGCCCCUGUCAGAUUCUGGUGAAUCUGCGAAUUCUGCUGUAUAUCUC  self-cleavage        0.47
11  UAACAGGGGGCCGCAGCAGAAGCGAUCACGUCGCAGCCCCUGUCAGAUUCUGGUGAAUCUGCGAAUUCUGCUGUAUAUCUC  self-cleavage        0.29
12  UAACAGGGGGCCACAGCAGAAGCGUUCACGUCGCAGCCCCUAUCAGAUUCCGGUGAAUCUGCGAAUUCUGCUGUAUAUCUC  self-cleavage        0.29
13  UAACAGGGGGCCACAGCAGAAGCGUUCACGUCGCAGCCCCUGUCAGAUUCUGGUGAAUCUGCGAAUUCUGCUGUUUAUCCC  self-cleavage         1.1
14  UAACAGGGGGCCACAGCAGAAGCGUACACGUCGCAGCCCCUGUCAGAUUCUGGUGAAUCUGCGAAUCCUGCUGUAUAUCUC  self-cleavage        0.29
15  UAACAGGGGUCCACAGCAGAAGCGUUCACGUCGCAGCCCCUGUCAGAUUCUGGUGAAUCUGCGAAAUCUGCUGUAUAUCUC  self-cleavage        0.18
16  UAACAGGGGGCCACAGCAGAAGCGUUCACGUCGCAGCCCCUGUGAGAUUCUGGUGAAUCUGCGAAUUCUGCUGUAUGUCUC  self-cleavage        0.62
17  UAACAGGGGGCCACAGCAGAAGCGUUCACGUGGCAGCCCCUGUCAGAUUCUGGUGAAUCUGCGAAUUCCGCUGUAUAUCUC  self-cleavage        0.44
18  UAACAGGGGGCCACAGCAGAAGCGUUCACGUCGCAGCCCCUGUCUGAUUCUGGUGAAUCUGCGAAGUCUGCUGUAUAUCUC  self-cleavage        0.13
19  UAACAGGGGGCCACAGCGGAAGCGUUCACGUCGCAGCCCCUGUCAGAUUCUGGUGAAUCUACGAAUUCUGCUGUAUAUCUC  self-cleavage         0.3
20  UAACAGGGGGCCACAGCAGAGGCGUUCACGUCGCAGCCCCUGUCAGAUUCUGGUGAAUCUGCGAAUUCUGCUGUCUAUCUC  self-cleavage        0.62
21  UAACAGGGGGCCACAGCAGAAGCGUUCACGUCGCAGCCCCUGUCAGAUUCUGGUGAAUCCGCGAAUUCUGCUGUAUAUCUA  self-cleavage        0.37
22  UAACAAGGGGCCACAGCAGAAGCGCUCACGUCGCAGCCCCUGUCAGAUUCUGGUGAAUCUGCGAAUUCUGCUGUAUAUCUC  self-cleavage        0.27
23  UAGCAGGGAGCCACAGCAGAAGCGUUCACGUCGCAGCCCCUGUCAGAUUCUGGUGAAUCUGCGAAUUCUGCUGUAUAUCUC  self-cleavage        0.53
24  UAACAGGAGGCCACAGCAGAAGCGUUCACGUCGCAGCCCCUGUCAGAUUCUGGUGAAUCUGUGAAUUCUGCUGUAUAUCUC  self-cleavage        0.22
25  UAACAGGGGGCCACAGCAGAAGCGUUCACGUCGCAGCCCCUGUAAGAUUCUGGUGAAUCUGCGAAUCCUGCUGUAUAUCUC  self-cleavage        0.16
26  UAACAGGAGGCCACAGCAGAAGCGUUCACGUCGCAGCCCCUGUCAGAUACUGGUGAAUCUGCGAAUUCUGCUGUAUAUCUC  self-cleavage        0.25
27  UAACAGGGGGCCACAGCAGAAGCGUUCACGUCGCGGCCCCUGUCAGAUUCUGGUGAAUCUGCGAAUUCUGCUGUAUAGCUC  self-cleavage        1.29
28  UAACAGGGGGCCACAGCAGAAGCGUUCACGUCGCAGCACCUGUCAGAUUCUGGUGAACCUGCGAAUUCUGCUGUAUAUCUC  self-cleavage        0.24
29  UAACAGGGGGCCACACCAGAAGCGUUCUCGUCGCAGCCCCUGUCAGAUUCUGGUGAAUCUGCGAAUUCUGCUGUAUAUCUC  self-cleavage        0.24
30  UAACAGGGGGCCACAGCAGAAGCGUUCGCGUCGCAGCCCCUGUCAGAUUCUGGUGAAUCUGCGAAUUCUGCUAUAUAUCUC  self-cleavage        1.16
31  UAACAGGGGGCCACAGCAGAAGCGUUCACGUCGCAGCCCCUGUCAGAUUCUGGUGAAUCUGCGAAUUCUGCGGUGUAUCUC  self-cleavage         1.2
32  UAACAGGGGGCCACAGCAGAAGCGUUCACGUCGCAGCCCCUGUCAGAUUCUGCUGAAUCUGCGAAUUCUGCCGUAUAUCUC  self-cleavage        1.21
33  UAACAGGGGGCCACAGCAGAAGCGUUCACGGCGCAGCCCCUGUCAGAUUCUGGUGAAUCUGCGAAUUCUGCGGUAUAUCUC  self-cleavage        0.92
34  UAACAGGGGGCCACAGCACAAGCGUUCACGUCGCAGCCCCUGUCAGAUACUGGUGAAUCUGCGAAUUCUGCUGUAUAUCUC  self-cleavage        0.36
35  UAACAUGGGGCCACAGCAGAAGCGUUCACGUCGCAGCCCCUGUCAGAUUCUGGUGAAUCUGCGAUUUCUGCUGUAUAUCUC  self-cleavage        0.23
36  UAACAGGGGGCCACAGCAGAAGCGUUCACGUCGCAGCCCCUGUCAGAUUCUGGUGAAUCUGCGAGUUCUGCUGUAUGUCUC  self-cleavage        0.51
37  UAACAGGGGGCCACGGCAGAAGCGUUCACGUCGCAGCCCCUGUCAGAUUCUGGUGAAUCUGCGAAAUCUGCUGUAUAUCUC  self-cleavage        0.45
38  UAACAGGGGGCCACAGCAGAAGCGUUAACGUCGCAGCCCCUGUCAGAUUCUGGUGAAUCCGCGAAUUCUGCUGUAUAUCUC  self-cleavage        0.18
39  UAACAGGGGGCCACAGCAGAAGCGUUCACGUCGCAGCCUCUGUCAGAUUCUGGUGAAUCUGCGAACUCUGCUGUAUAUCUC  self-cleavage        0.37
40  UAACGGGGGGCCACAGCAGAAGCGUUCACGUCGCAGCCCCUGUCAGAUUCUGGUGAAUCUGCGAAUUCUGCUGUAUAGCUC  self-cleavage        0.91
41  UAACAGGGGGCCACAGCAGAAGCGUUCACGUCGCAGCCCCUGUCAGUUUCUGGUGAAUCUGCGAAUUCUGCUGUAUAUCAC  self-cleavage        0.51
42  UAACAGGGGGCCACAGCAGAAGCGUUCACGUCGCAGCCCAUGUCAGAUUAUGGUGAAUCUGCGAAUUCUGCUGUAUAUCUC  self-cleavage        0.27
43  UAUCAGGGGGCCACAGCAGAAGCGUACACGUCGCAGCCCCUGUCAGAUUCUGGUGAAUCUGCGAAUUCUGCUGUAUAUCUC  self-cleavage        1.03
44  UAACAGGGGGCCACAGCAGAAGCGUUCACGUCGCAGCCCCUGUCAGAUUCCGGUGAAUCUGCGAAUUCUGCUGUAUAUAUC  self-cleavage        1.24
45  UAACAGGGGGCCACAGCAGAAGCGUUCACGUCGCAGCCCCUGUCAGCUUCUGGUGAAUCUGCGAAUCCUGCUGUAUAUCUC  self-cleavage        0.12
46  UAGCAGGGGGCCACAGCAGAAGCGUUCACGUCGCAGCCCCUGUCAGAUUUUGGUGAAUCUGCGAAUUCUGCUGUAUAUCUC  self-cleavage        0.94
47  UAACAGGGGUCCACAGCAGAAGCGUUCACGUCGCAGCCCCUGUCAGAUUUUGGUGAAUCUGCGAAUUCUGCUGUAUAUCUC  self-cleavage        0.17
48  UAACAGGGGGCCACAGCAGAAGCGUUCACGUCGCAGCCCCUGCCAGAUUCUGGUGAGUCUGCGAAUUCUGCUGUAUAUCUC  self-cleavage         0.3
49  UAACAGGGGGCCGCAGCAGAUGCGUUCACGUCGCAGCCCCUGUCAGAUUCUGGUGAAUCUGCGAAUUCUGCUGUAUAUCUC  self-cleavage        0.35
50  UAACAGGGGGCCACAGCAGGAGCGUUCACGUCGCAGCCACUGUCAGAUUCUGGUGAAUCUGCGAAUUCUGCUGUAUAUCUC  self-cleavage        0.37
